B1: Formin-binding protein 4, residues 200 to 261; numbered along this chain, Q8N3X1 (parent)
chain: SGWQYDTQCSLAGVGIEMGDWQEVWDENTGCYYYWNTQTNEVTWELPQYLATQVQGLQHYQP

Variants of: B1
METHOD_SUMMARY: abundance fitness (aPCA) (normalised: wild type 0, dead -1); higher = more abundant; growth selection in yeast, the domain comes from the species named
EXPERIMENTAL_PARAMETERS: Homo sapiens
abundance fitness: recorded values
Give the figure by itself; no unit, no explanation.

Lookup: May I ask what abundance fitness has been recorded for `E41W` ?
Found: -0.378

Lookup: May I ask what abundance fitness has been recorded for `E27H` ?
Found: 0.516

Lookup: May I ask what abundance fitness has been recorded for `G30N` ?
Found: -0.15

Lookup: May I ask what abundance fitness has been recorded for `Q58H` ?
Found: -0.005
